# Tested on: Rattus norvegicus
# Assay procedure: Antiallergic activity in the rat PCA test following iv administration relative to M&B 22,948, the dose of which was 0.1 mg/kg for 100% inhibition
# Format: functional
Can you tell me Relative activity for the items I'm about to list?
Note: the reply should be a number with no unit written.

Requested field: Relative activity. Item: `CC(=O)c1cc(C)cc(C(=O)Nc2nn[nH]n2)c1O` 1

What measured Relative activity goes with `CCCc1cc(NC(=O)c2nn[nH]n2)c(O)c(C(C)=O)c1` ? 10

Could you tell me which Relative activity is on file for `CC(C)(C)c1ccc(O)c(C(=O)Nc2nn[nH]n2)c1` ? 0.01

Requested read-out: Relative activity. Entry: `CSc1ccc(O)c(C(=O)Nc2nn[nH]n2)c1` 0.2

// returns reported Relative activity for input `COC(=O)c1cc(C)cc(NC(=O)c2nn[nH]n2)c1O` 2

Name the reported Relative activity value associated with the compound `O=C(Nc1ccccc1O)c1nn[nH]n1` 1

Record request: Relative activity value, item `CC(=O)c1cccc(NC(=O)c2nn[nH]n2)c1O` 20

Consider the compound shown here: `Cc1ccc(O)c(C(=O)Nc2nn[nH]n2)c1` What is its recorded Relative activity? 0.1

Fill blank: measured Relative activity of the compound `Cc1cc(NC(=O)c2nn[nH]n2)c(O)c(C(=O)C(F)(F)F)c1` is ____. 0.2

Look at this compound and give its reported Relative activity. `CC(=O)c1cc(Br)cc(NC(=O)c2nn[nH]n2)c1O` 2

Which Relative activity is reported for this compound? `CCc1cc(NC(=O)c2nn[nH]n2)c(O)c(C(C)=O)c1` 20

Which Relative activity reading was recorded for the compound `CC(=O)c1cccc(C(=O)Nc2nn[nH]n2)c1O` ? 1

Find the recorded Relative activity belonging to `CC(=O)c1cc(C)cc(NC(=O)c2nn[nH]n2)c1O` and report it. 10

Entry under review: `COc1cc(NC(=O)c2nn[nH]n2)c(O)c(C(C)=O)c1` . Reported Relative activity? 10

// Relative activity lookup, key: `Cc1cc(NC(=O)c2nn[nH]n2)c(O)c(C(=O)C(C)C)c1` 5

Form field: reported Relative activity of `O=C(Nc1nn[nH]n1)c1cc(Br)ccc1O` 0.02

Quick check: Relative activity of `COc1cc(OC)c(O)c(C(=O)Nc2nn[nH]n2)c1` ? 0.5

Recorded Relative activity of `CCOC(=O)c1cc(C)cc(NC(=O)c2nn[nH]n2)c1O` , please. 10

Param item = `Cc1cc(NC(=O)c2nn[nH]n2)c(O)c(C(=O)O)c1` ; retrieve measured Relative activity. 0.2

Requested read-out: Relative activity. Entry: `CN(C)S(=O)(=O)c1ccc(O)c(NC(=O)c2nn[nH]n2)c1` 0.25

Look at this compound and give its reported Relative activity. `CC(=O)c1cc(C(C)(C)C)cc(NC(=O)c2nn[nH]n2)c1O` 0.5

Given the compound `COc1cc(C)cc(C(=O)Nc2nn[nH]n2)c1O` , what is its reported Relative activity? 0.5

Can you look up the measured Relative activity of `COc1cccc(NC(=O)c2nn[nH]n2)c1O` for me? 5

Fill in the blank: the reported Relative activity of `O=C(Nc1nn[nH]n1)c1cc(O)ccc1O` is ____. 0.1

Relative activity lookup needed for `O=C(Nc1nn[nH]n1)c1cc(-c2ccccc2)ccc1O` , thanks. 0.01
